Below is a list of entries, each paired with its recorded pEC50 value.
Biological target: Sulfonylurea receptors; K-ATP channels (Homo sapiens, UniProt O60706+Q09428+Q14654+Q15842)
Assay: Evaluated for K-ATP activity in terms of change in membrane potential through guinea pig bladder assay
Type: functional, Cavia porcellus
Conditions: target entry is the homologue from another species
A value of pEC50 is the negative decimal logarithm of a concentration given in moles per litre.

Reference set (3 entries):
| MOLECULE | RECORDED_RESULT |
| --- | --- |
| O=C1CCC2=C1C(c1cc(Br)cs1)C1=C(CCS1(=O)=O)N2 (centres undefined) | 6.13 |
| O=C1CCCC2=C1C(c1ccc(F)c(Br)c1)C1=C(CCCS1(=O)=O)N2 (single isomer, unassigned; (+)) | 5.92 |
| CC(=O)c1cc([C@H]2C3=C(CCCC3=O)NC3=C2S(=O)(=O)CC3)ccc1F | 5.98 |

Asked: Form entry - test system: Sulfonylurea receptors; K-ATP channels (Homo sapiens, UniProt O60706+Q09428+Q14654+Q15842); read-out: pEC50; molecule: `O=C1CCCC2=C1[C@H](c1cccc(Br)c1)C1=C(CCS1(=O)=O)N2`
Given back: 5.82

----------
Below is a list of entries, each paired with its recorded EC50 value.
Biological target: Sulfonylurea receptors; K-ATP channels (Homo sapiens, UniProt O60706+Q09428+Q14654+Q15842)
Test: Evaluated for K-ATP activity in terms of change in membrane potential through guinea pig bladder assay
Assay type: functional, Cavia porcellus
Settings: target entry is the homologue from another species
Express your answer in nM, writing the number without its unit.

Reference set (4 entries):
| COMPOUND | MEASUREMENT_UNITS | EC50 |
| --- | --- | --- |
| CSc1cc([C@H]2C3=C(CCCC3=O)NC3=C2S(=O)(=O)CC3)ccc1F | nM | 2570 |
| N#Cc1cc([C@H]2C3=C(CCCC3=O)NC3=C2S(=O)(=O)CC3)ccc1F | nM | 468 |
| O=C1CCCC2=C1[C@H](c1ccc(F)c(Cl)c1)C1=C(CCS1(=O)=O)N2 | nM | 138 |
| N#Cc1cccc([C@H]2C3=C(CCCC3=O)NC3=C2S(=O)(=O)CC3)c1 | nM | 5890 |

Asked: Quick check: EC50 of CCOC(=O)C1=C(C)NC2=C(C1c1ccc(F)c(Br)c1)S(=O)(=O)CC2 (stereo unspecified) ?
Given back: 501

Asked: Quick check: EC50 of `CC1(C)CC(=O)C2=C(C1)NC1=C([C@@H]2c2ccc(F)c(Br)c2)S(=O)(=O)CC1` ?
Given back: 17800

Asked: Quick check: EC50 of O=C1CCC2=C1C(c1csc([N+](=O)[O-])c1)C1=C(CCS1(=O)=O)N2 (stereo unspecified) ?
Given back: 240

Asked: Quick check: EC50 of `O=C1CCCC2=C1[C@@H](c1ccc(F)c(Br)c1)C1=C(CCS1(=O)=O)N2` ?
Given back: 43.7

Asked: Quick check: EC50 of `Cc1ccc([C@H]2C3=C(CCCC3=O)NC3=C2S(=O)(=O)CC3)cc1Br` ?
Given back: 182

Asked: Quick check: EC50 of `O=C1CCCC2=C1[C@H](c1ccc(F)c(-c3ccccc3)c1)C1=C(CCS1(=O)=O)N2` ?
Given back: 12000
